molecular target: T1, human MSLN-FL-his protein (human, UniProt Q13421 296-580); experiment: SPR (Biacore), antibody captured on Protein A chip;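 also: flow cell at 25 °C, antigen injected for 240 s at five concentrations from 200 nM downward, dissociation followed up to 600 s, double-referenced, fitted with Langmuir 1:1 model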
T1 construct: made in HEK293E cells, purified on nickel column; also called hMSLN-FL-his; human MSLN full-length protein; not shown: His tag
T1 sequence (Q13421 other isoform, or with tags, fused parts or gaps): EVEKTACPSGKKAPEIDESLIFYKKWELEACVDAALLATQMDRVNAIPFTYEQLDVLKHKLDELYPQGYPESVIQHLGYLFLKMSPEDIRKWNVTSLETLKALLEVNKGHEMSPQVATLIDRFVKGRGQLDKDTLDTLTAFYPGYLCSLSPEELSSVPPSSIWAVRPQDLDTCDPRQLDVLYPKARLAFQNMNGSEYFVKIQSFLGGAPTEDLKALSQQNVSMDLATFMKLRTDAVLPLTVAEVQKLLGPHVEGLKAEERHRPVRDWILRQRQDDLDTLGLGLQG
MEASURED_PARAMETER: Kd (nM)
One number for each entry, in nM.

BINDER: S009-F8-27.1 (antibody, human IgG1, kappa, V domains shown, human-murine chimeric antibody, human IgG1/kappa constant regions) VH: EVQLVESGGGLVKPGGSLKLSCAASGFTFSSYAMSWVRQTPEKRLEWVATISDGGNYTYYPDNVKGRFTISRDNAKNNLYLQMSHLKSEDTAMYYCAGDRGYPYAMDSWGQGTSVTVSS VL: NIMMTQSPSSLAVSAGEKVTMSCKSSQSVLYSSNQKNYLAWYQQKPGQSPKLLIYWASTRESGVPDRFTGSGSGTDFTLTISNVHAEDLAVYYCHQYLSSLTFGAGTKLELKR
Kd [nM]: 1.95
--
BINDER: S009-F8-4.5 (antibody, human IgG1, kappa, V domains shown, human-murine chimeric antibody, human IgG1/kappa constant regions) VH: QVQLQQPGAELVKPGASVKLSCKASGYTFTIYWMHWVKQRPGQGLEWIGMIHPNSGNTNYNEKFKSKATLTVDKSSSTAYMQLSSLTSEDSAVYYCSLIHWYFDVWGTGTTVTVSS VL: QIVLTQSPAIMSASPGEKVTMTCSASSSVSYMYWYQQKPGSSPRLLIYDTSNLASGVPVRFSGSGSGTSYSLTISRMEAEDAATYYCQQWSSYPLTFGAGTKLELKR
Kd [nM]: 0.824
--
BINDER: S009-F7.48.1 (antibody, human IgG1, kappa, V domains shown, human-murine chimeric antibody, human IgG1/kappa constant regions) VH: QVQLQQPGTELVKPGASVKLSCKASGYTFTSYWMHWVKQRPGQGLEWIGNINPSNGGTNNNENFKSKATLTVDTSSSTAYMQLSSLTSEDSAVYYCVRNGYHGYWYFDVWGTGTTVTVSS VL: DIVMTQSQKFMSTSVGDRVSVTCKASQNVGTNVAWYQQQPGQSPKALIYSASYRYSGVPDRFTGSVSGTDFTLTISNVQSEDLAEYFCQQYNSYPLTFGGGTKLEIKR
Kd [nM]: 17.8

For every item below, please supply its Kd.
1. S009-F8-13.8 (antibody, human IgG1, kappa, V domains shown, human-murine chimeric antibody, human IgG1/kappa constant regions) VH: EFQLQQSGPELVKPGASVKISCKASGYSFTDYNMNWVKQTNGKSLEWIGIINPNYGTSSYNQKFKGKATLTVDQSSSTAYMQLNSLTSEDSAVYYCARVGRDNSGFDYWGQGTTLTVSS VL: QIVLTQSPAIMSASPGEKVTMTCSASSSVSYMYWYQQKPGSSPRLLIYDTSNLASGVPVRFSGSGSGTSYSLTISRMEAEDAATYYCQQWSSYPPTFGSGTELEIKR
2. S009-F8-12.13 (antibody, human IgG1, kappa, V domains shown, human-murine chimeric antibody, human IgG1/kappa constant regions) VH: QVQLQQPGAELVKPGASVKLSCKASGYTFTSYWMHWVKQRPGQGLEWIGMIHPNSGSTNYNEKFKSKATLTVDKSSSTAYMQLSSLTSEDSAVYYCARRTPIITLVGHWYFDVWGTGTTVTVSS VL: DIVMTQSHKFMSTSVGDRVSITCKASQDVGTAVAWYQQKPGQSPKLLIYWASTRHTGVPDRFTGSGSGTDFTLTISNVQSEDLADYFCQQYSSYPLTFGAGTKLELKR
3. S009-F8-32.3 (antibody, human IgG1, kappa, V domains shown, human-murine chimeric antibody, human IgG1/kappa constant regions) VH: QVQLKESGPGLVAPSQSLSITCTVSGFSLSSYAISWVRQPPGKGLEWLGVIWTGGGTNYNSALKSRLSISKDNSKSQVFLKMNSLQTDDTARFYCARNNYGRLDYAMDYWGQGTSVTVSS VL: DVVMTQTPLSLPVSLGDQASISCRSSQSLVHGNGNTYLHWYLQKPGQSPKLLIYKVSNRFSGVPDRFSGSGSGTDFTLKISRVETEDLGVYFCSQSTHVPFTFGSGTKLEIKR
4. S009-F8-36.12 (antibody, human IgG1, kappa, V domains shown, human-murine chimeric antibody, human IgG1/kappa constant regions) VH: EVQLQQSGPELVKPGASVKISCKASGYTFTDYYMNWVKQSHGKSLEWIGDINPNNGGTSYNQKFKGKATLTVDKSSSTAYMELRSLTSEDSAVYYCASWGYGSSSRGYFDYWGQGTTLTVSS VL: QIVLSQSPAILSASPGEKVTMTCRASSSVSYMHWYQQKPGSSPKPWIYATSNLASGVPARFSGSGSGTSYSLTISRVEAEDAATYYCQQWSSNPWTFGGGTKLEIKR

0.95
5.5
6.5
103
